Sourced from ChEMBL document CHEMBL5046242

Target: UniProtKB P23458
Sequence (P23458 whole entry): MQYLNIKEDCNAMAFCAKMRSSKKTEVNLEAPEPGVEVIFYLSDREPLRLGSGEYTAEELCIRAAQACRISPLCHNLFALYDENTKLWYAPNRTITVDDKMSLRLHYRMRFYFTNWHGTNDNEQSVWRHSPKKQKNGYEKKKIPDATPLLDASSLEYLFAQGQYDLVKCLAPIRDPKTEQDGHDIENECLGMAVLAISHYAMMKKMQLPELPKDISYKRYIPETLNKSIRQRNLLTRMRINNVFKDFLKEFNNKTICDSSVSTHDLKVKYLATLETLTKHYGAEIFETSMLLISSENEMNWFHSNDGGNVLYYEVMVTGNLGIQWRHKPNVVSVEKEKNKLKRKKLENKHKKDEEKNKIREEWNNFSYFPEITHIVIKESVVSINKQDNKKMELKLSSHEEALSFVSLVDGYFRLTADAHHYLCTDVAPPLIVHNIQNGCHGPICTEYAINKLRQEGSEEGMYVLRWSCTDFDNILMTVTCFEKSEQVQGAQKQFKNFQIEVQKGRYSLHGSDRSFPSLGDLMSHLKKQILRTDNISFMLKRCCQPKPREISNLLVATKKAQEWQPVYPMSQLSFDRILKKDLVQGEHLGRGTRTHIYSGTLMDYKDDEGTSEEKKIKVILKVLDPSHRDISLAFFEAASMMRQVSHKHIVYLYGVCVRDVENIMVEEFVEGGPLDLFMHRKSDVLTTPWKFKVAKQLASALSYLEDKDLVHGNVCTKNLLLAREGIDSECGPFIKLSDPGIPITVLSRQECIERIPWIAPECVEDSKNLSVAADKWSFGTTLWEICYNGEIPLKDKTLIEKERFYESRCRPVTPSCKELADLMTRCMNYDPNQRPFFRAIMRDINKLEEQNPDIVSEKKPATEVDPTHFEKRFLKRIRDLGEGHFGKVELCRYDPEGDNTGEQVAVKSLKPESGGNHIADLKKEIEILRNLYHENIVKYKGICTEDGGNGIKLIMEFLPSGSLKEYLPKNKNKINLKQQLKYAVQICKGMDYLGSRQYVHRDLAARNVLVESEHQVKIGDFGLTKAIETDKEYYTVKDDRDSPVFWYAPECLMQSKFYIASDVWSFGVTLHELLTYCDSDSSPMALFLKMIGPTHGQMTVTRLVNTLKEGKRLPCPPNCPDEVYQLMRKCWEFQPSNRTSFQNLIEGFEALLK
IC50 strictly under 100 nM means rule met; at 100 nM or over means rule not met.

Would you please look over these solved cases?
[[record]]
chemical_structure = "COc1cc(-c2ccc(O)cc2)cc2cnc(Nc3cnn(C)c3)nc12"
discrete_label = "rule met"

[[record]]
chemical_structure = "Cn1cc(Nc2ncc3cccc(OC4CCNCC4)c3n2)cn1"
discrete_label = "rule met"

[[record]]
chemical_structure = "COc1cccc2cnc(Nc3cnn(C)c3)nc12"
discrete_label = "rule not met"

[[record]]
chemical_structure = "CC(=O)N1CCC(Oc2cccc3cnc(Nc4cnn(C)c4)nc23)CC1"
discrete_label = "rule not met"


For the next question, use this molecule.
Asked: Check if IC50 falls below 100 nM for `CC(=O)N1CCC(Nc2cccc3cnc(Nc4cnn(C)c4)nc23)CC1` .
Given back: rule not met
